GI50: recorded values
Test system: Malme-3M
method-description: NCI tumour cell line growth inhibition, 48 h
Calls of active or inactive are those of the source. No stated cut-off is given here; in the data, active = GI50 up to about 1.1 µM and inactive = higher.

Worked cases, answers included:
>  <compound>
C/C(=N\NS(=O)(=O)c1ccc(C)cc1)P(=O)(O)O

>  <target-system>
Malme-3M

>  <GI50>
> 100 µM (inactive)

$$$$
>  <compound>
CCC1(N)C(=O)OCc2c1cc1n(c2=O)Cc2cc3ccccc3nc2-1 (stereo unspecified)

>  <target-system>
Malme-3M

>  <GI50>
44.3 µM (inactive)

$$$$

# input // GI50 lookup, key: COC(=O)[C@@]1(C)CCC[C@]2(C(=O)O)C3Cc4occc4[C@H](C)[C@@H]3CCC21 (stereo partly specified)
# output 34.5 µM (inactive)

# input // GI50 lookup, key: CCOC1=CP(=O)(OCC)CC(C)=C1Cl (stereo unspecified)
# output > 100 µM (inactive)

# input // GI50 lookup, key: `Cc1ccc(C2=Nc3cccc4cccc(c34)N2)cc1`
# output > 100 µM (inactive)

# input // GI50 lookup, key: `N=C(N)SCC(=O)O`
# output > 100 µM (inactive)
